Tested on: NCI-H322M lung
experiment: NCI-60 one-dose screen, 48 h (100 = growth as untreated, 0 = no growth, -100 = all killed)
assay conditions: 10 µM
Experimental: Growth inhibition of the NCI-H322M human Non-Small Cell Lung tumor cell line is measured as a screen for anti-cancer activity. Cells are grown in 96 well plates and exposed to the test compound for 48 hours. Compounds are tested at a single concentration, which is 10^-5 M for most compounds. The reported endpoint is percent growth (GI% or GIPRCNT), where numbers from 0 - 100% represent growth inhibition, and numbers from -100% - 0 represent cell death. […]
The panel holds about 83,000 compounds, 20% with a hit somewhere; the sample as a whole holds those more often.
Parameter class (string): assigned from measured growth. Ranges: group A (below 60%), group B (60% to below 90%), group C (90% or more)

Consider the following illustrative entries.
# compound, answer label
rows = [
    ("COc1cccc2c1O/C(=C\\c1ncc([N+](=O)[O-])n1C)C2=O", "group A"),
    ("CCOCC[P+](c1ccccc1)(c1ccccc1)c1ccccc1", "group B"),
]

Which of the defined bands does the recorded growth of `Clc1cc(Cl)c(Cl)c(-c2nc(-c3cccnc3)cs2)c1` sit within? group C

Which of the defined bands does the recorded growth of `COc1cc(-c2cc(/C=C/C(C)=O)[nH]n2)cc(OC)c1OC` sit within? group B

Which of the defined bands does the recorded growth of `Cc1ccc2nc3[nH]c(=O)[nH]c(=O)c3c(N)c2c1` sit within? group B

Which of the defined bands does the recorded growth of `C#CCNCCCN1C(=O)c2ccc3c4c(ccc(c24)C1=O)C(=O)N(CCCNCC#C)C3=O` sit within? group A

Which of the defined bands does the recorded growth of `COc1cccc(-c2nnc(COc3ccc(-c4nc5ccccc5[nH]4)cc3OC)o2)c1` sit within? group C

Which of the defined bands does the recorded growth of `COc1cc(NS(C)(=O)=O)ccc1Nc1c2ccc(Cl)cc2nc2c(OC)cccc12` sit within? group A

Which of the defined bands does the recorded growth of `COC(=O)[C@]12CC[C@@H](C)[C@H](C)[C@@H]1C1=CC[C@@H]3[C@@]4(C)C/C(=N\O)[C@H](O)[C@@]5(C)COC(=C45)C[C@@]3(C)[C@]1(C)CC2` sit within? group A

Which of the defined bands does the recorded growth of COc1cc(C2C=C(c3ccc(Cl)c(Cl)c3)N=C3SC(C)=CN32)cc(OC)c1OC (stereo not given) sit within? group B

Which of the defined bands does the recorded growth of Cc1cc(C)c(C(=O)OC(C)CNC2CCCCC2)c(C)c1 (stereo not given) sit within? group C

Which of the defined bands does the recorded growth of `COc1ccc(-c2cc(/C=C/C(=O)c3ccc(N)cc3)[nH]n2)cc1OC` sit within? group A

Which of the defined bands does the recorded growth of `Nc1nsc(C(=O)c2ccc(O)cc2)n1` sit within? group C

Which of the defined bands does the recorded growth of `Fc1ccc(Nc2ccnc(N3CCN(c4ccnc5cc(Cl)ccc45)CC3)n2)cc1` sit within? group B

Which of the defined bands does the recorded growth of `CCCCCCCCCCCCCCCCn1cc[n+](C)c1` sit within? group A

Which of the defined bands does the recorded growth of `Fc1ccc(-c2cc(C(Cl)Cl)no2)cc1` sit within? group C

Which of the defined bands does the recorded growth of `CCCCCCN=C(N)CCCCCCCCCCC(N)=NCCCCCC` sit within? group B

Which of the defined bands does the recorded growth of `COC(=O)[C@]12CC[C@@H](C)[C@H](C)[C@@H]1C1=CC[C@@H]3[C@@]4(C)C[C@@H](O)[C@H](O)[C@@](C)(CO)[C@@H]4[C@H](O)C[C@@]3(C)[C@]1(C)CC2` sit within? group A

---

Entries and their measured growth follow.
Tested on: MDA-MB-435 melanoma
experiment: NCI-60 one-dose screen, 48 h (100 = growth as untreated, 0 = no growth, -100 = all killed)
assay conditions: 10 µM
About 83,000 compounds went through this panel and 20% of them were active in at least one assay; those are over-represented in the sample as a whole.
Reply with just the number (in %).

# molecule, reported property, value reported
records = [
    ("COc1ccc(-c2nc(SCC(=O)c3ccc(Br)cc3)[nH]c(=O)c2C#N)cc1", "growth", 100),
    ("O=C1NN(c2ccccc2)C(c2cccnc2)=N/C1=C\\c1cccnc1", "growth", 92.4),
]

Given `COc1ccc(CSc2nc3cc(OC)c(OC)cc3c(=O)n2-c2ccc(OC)cc2OC)cc1` , respond with its growth. 62

Given CC(=O)Oc1c(C)c(C)c2c(c1C)CCC(C)(CC(=O)OCCCCCCCCCCC[P+](c1ccccc1)(c1ccccc1)c1ccccc1)O2 (centres undefined) , respond with its growth. -89.2

Given COC(=O)C1(C(=O)OC)C2C(=O)C3C(C21)C3(C(=O)OC(C)(C)C)C(=O)OC(C)(C)C (centres undefined) , respond with its growth. 99.9

---

Tested on: K-562 leukemia
experiment: NCI-60 one-dose screen, 48 h
assay conditions: 10 µM
About 83,000 compounds went through this panel and 20% of them were active in at least one assay; those are over-represented in the sample as a whole. The source made the active and inactive calls. How the source made its calls: active means growth percent below 10; inactive means the rest.
Respond only with the outcome that fits, drawn from active, inactive

# compound, target of assay, answer label
measured = [
    ("N/C(=N\\O)c1cn(C2OC(CO)C(O)C2O)c2ncnc(N)c12 (stereo not drawn)", "K-562 leukemia", "active"),
]

// return assay outcome for `O=S(=O)(NCCO)c1ccc(OCCOc2ccc(S(=O)(=O)NCCO)cc2)cc1` inactive

// return assay outcome for `COc1ccc(-c2oncc2-c2cc(OC)c3c(c2)OCO3)cc1` inactive

// return assay outcome for `FC(F)(F)c1ccc(-c2cnc(Br)nc2NC2CCCCCC2)cc1` inactive

// return assay outcome for `COc1ccc(-c2nc(-c3ccccc3)c(-c3ccccc3)[nH]2)cc1OC1CCCC1` inactive

---

Test system: LOX IMVI melanoma
experiment: NCI-60 one-dose screen, 48 h
assay conditions: 10 µM
About 83,000 compounds went through this panel and 20% of them were active in at least one assay; those are over-represented in the sample as a whole. Calls of active or inactive are those of the source. Rule for the calls: active = growth percent below 10; inactive = the rest.
Respond only with the outcome that fits, drawn from t (active), f (inactive)

Consider the following illustrative entries.
# compound, target of assay, answer label
records = [
    ("CC1(C)CC(OCCCC[P+](c2ccccc2)(c2ccccc2)c2ccccc2)CC(C)(C)N1O", "LOX IMVI melanoma", "t"),
    ("COc1ccc(N2CCN(c3nc(-c4ccccc4)c(C#N)c(=O)[nH]3)CC2)cc1", "LOX IMVI melanoma", "f"),
    ("O=C(NC1CCN(Cc2ccccc2)CC1)c1cc(-c2ccncc2)nc2ccc(Cl)cc12", "LOX IMVI melanoma", "f"),
    ("CCN(CC)CCOC(=O)c1ccc(N=Nc2ccc(O)c(OC)c2)cc1", "LOX IMVI melanoma", "f"),
    ("Cc1ccc(-c2cc(-c3cccc(Nc4ccnc5cc(Cl)ccc45)c3)nc3nc(N)[nH]c(=O)c23)cc1", "LOX IMVI melanoma", "f"),
    ("Cc1ccc(C2C=C(c3ccc(Cl)cc3)N=C3SC=CN32)c(Br)c1 (centres undefined)", "LOX IMVI melanoma", "f"),
]

// return assay outcome for `COc1cc(Cl)cc(-c2nn(-c3cccc(NC(=O)Nc4cccc(C(F)(F)F)c4)c3)cc2-c2ccncc2)c1` t

// return assay outcome for `CCSc1nc2c([nH]1)c(=O)n(C)c(=S)n2C` f

// return assay outcome for COc1cc(C2C=C(c3ccc(Cl)cc3)N=C3SC(C)=CN32)cc(OC)c1OC (centres undefined) f

---

System: DU-145 prostate
experiment: NCI-60 one-dose screen, 48 h (100 = growth as untreated, 0 = no growth, -100 = all killed)
assay conditions: 10 µM
About 83,000 compounds went through this panel and 20% of them were active in at least one assay; those are over-represented in the sample as a whole.
reported property: growth (%)
Reply with just the number (in %).

# compound, growth / %
measured = [
    ("CCN(CC)CCn1c(=N)n(CC(O)c2ccc(Cl)c(Cl)c2)c2ccccc21 (stereo unspecified)", 97),
    ("Cc1[nH]nc2c(=S)[nH]c(=O)[nH]c12", 106),
]

Supply growth measured with DU-145 prostate for `CN(C1c2ccccc2Oc2ccccc21)S(=O)(=O)c1cc(Cl)ccc1Cl` . 78.2

Supply growth measured with DU-145 prostate for `N#Cc1cnc2ccc(NCc3cnc[nH]3)cc2c1Nc1ccc(F)c(Cl)c1` . 39.5

Supply growth measured with DU-145 prostate for `O=NN(CCCl)C(=O)NCc1ccc(-c2ccc(CNC(=O)N(CCCl)N=O)cc2)cc1` . 112

Supply growth measured with DU-145 prostate for `Nc1ccc(Sc2ccc3c4c2cccc4c(=O)n2c4ccccc4nc32)cc1` . 39.3

Supply growth measured with DU-145 prostate for `Cc1nc2cc(-n3c(-c4ccc(F)cc4)nc4ccccc4c3=O)ccc2n1Cc1ccccc1` . 20.8

Supply growth measured with DU-145 prostate for `Cc1ccc(-n2c(-c3cc4c([nH]c5ccccc54)c(-c4cccc(O)c4)n3)n[nH]c2=S)cc1` . -16.6

Supply growth measured with DU-145 prostate for `COc1cc(C2=Nc3c/c(=C\c4c(O)[nH]c5ccc(Cl)cc45)ccc3=N2)cc(OC)c1OC` . 4.46

Supply growth measured with DU-145 prostate for `N#C/C(=C/c1cc([N+](=O)[O-])ccc1Cl)C(N)=O` . 92.7

Supply growth measured with DU-145 prostate for COC(=O)C1(C(=O)OC)C2C(=O)C3C(C21)C3(C(=O)OC(C)(C)C)C(=O)OC(C)(C)C (stereo unspecified) . 118

Supply growth measured with DU-145 prostate for `CCCc1ccnc(NS(=O)(=O)c2ccc(N)cc2)n1` . 117

Supply growth measured with DU-145 prostate for `COc1ccc(NC(=O)CCn2cnc3c(cc(-c4ccccc4)n3-c3ccccc3)c2=O)cc1` . 97.1

Supply growth measured with DU-145 prostate for COc1ccc(NC(=O)c2sc3nc4c(cc3c2N)C(O)CCC4)cc1 (stereo unspecified) . 93.3

Supply growth measured with DU-145 prostate for `CCCCCCCCCCCC(=O)NCCCN(C)C` . 107

Supply growth measured with DU-145 prostate for `O=c1c2cccc3c(Nc4ccc(Br)cn4)ccc(c32)c2nc3ccccc3n12` . 99.4

Supply growth measured with DU-145 prostate for COc1ccc(C2C=C(c3ccc(Cl)c(Cl)c3)N=C3SC(C)=CN32)cc1OC (stereo unspecified) . 83.6

Supply growth measured with DU-145 prostate for CCN(CC)CC(O)CNc1ccnc2cc(Cl)c(Cl)cc12 (stereo unspecified) . 92.6
